Reported viability at 72 h, 25 µM values are given for each entry in this list.
- Method Summary: Vero cell viability, MTT test, 72 h
- Assay type: cell-based, African green monkey
- Condition Info: African green monkey, Vero cells, +F127 (Pluronic F-127); 25 µM/L; Vero, MTT, 3 days; read-out: Viability % ±s.d.

{"Molecule": "O=C(CC[n+]1ccccc1)Oc1ccc(-c2c3nc(c(-c4ccc(OC(=O)CC[n+]5ccccc5)cc4)c4ccc([nH]4)c(-c4ccc(OC(=O)CC[n+]5ccccc5)cc4)c4nc(c(-c5ccc(OC(=O)CC[n+]6ccccc6)cc5)c5ccc2[nH]5)C=C4)C=C3)cc1", "viability at 72 h, 25 µM / %": 89.1}
{"Molecule": "C[n+]1ccc(-c2c3nc(c(-c4cc[n+](C)cc4)c4ccc([nH]4)c(-c4cc[n+](C)cc4)c4nc(c(-c5cc[n+](C)cc5)c5ccc2[nH]5)C=C4)C=C3)cc1 [TMePyP, reference compound]", "viability at 72 h, 25 µM / %": 95.2}
